Source of measurements: ChEMBL document CHEMBL4825686

Test: Metabolic stability in NMRI mouse liver microsomes assessed as intrinsic clearance at 1 uM measured per mg protein upto 40 mins
Assay type: ADME, Microsome
Settings: read-out: CLH
readout label: microsomal CLint at 1 µM (µL/min/mg)

Worked cases, answers included:
Cc1ccc(CN2CCN(C(=O)C(=O)Nc3ccc4c(c3)CCN4C)CC2)cc1 18
Cc1ccc(CN2CCN(C(=O)C(=O)Nc3ccc4[nH]c(C)c(C)c4c3)CC2)cc1 151
Cc1ccc(Oc2cnc(C(=O)C(=O)Nc3ccc4c(ccn4C)c3)cn2)cc1 156

A. Cc1ccc(CN2CCN(C(=O)C(=O)Nc3cc(F)c4[nH]ccc4c3)CC2)cc1
B. Cc1ccc(CN2CCN(C(=O)C(=O)Nc3ccc4c(ccn4C)c3)CC2)cc1
# argmax over microsomal CLint at 1 µM for candidates A and B Your answer should be the label of the entry you select.
A
